Origin of the recorded values: the supplement of paper PMC6555819

- Tested on: PPARg DBDmut:RXRa IVT, anti-PPARg (DBD mutation: PPARg1 K132A/R137A, NR concentration 270 nM, RXRa partner concentration 90 nM)
- assay notes: PBM binding z-score (relative to random genomic background probes); higher = stronger binding; sequences stand for … in GC…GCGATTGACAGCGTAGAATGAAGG
measured property: PBM binding z-score
Number only, please.

Sample records with PBM binding z-score:
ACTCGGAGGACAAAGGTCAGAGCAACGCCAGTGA | 0.771
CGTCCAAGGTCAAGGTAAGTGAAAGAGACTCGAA | 0.749
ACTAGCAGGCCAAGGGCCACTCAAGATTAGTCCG | -0.352
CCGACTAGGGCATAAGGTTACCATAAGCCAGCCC | -0.186
GGAACGAGGGCATTCGAGTTGACAGCATGGCGAT | 0.222
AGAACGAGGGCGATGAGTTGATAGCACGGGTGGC | -0.427
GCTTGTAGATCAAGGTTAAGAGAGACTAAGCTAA | 0.118
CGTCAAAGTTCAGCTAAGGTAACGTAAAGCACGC | 0.517
CGTTCAAGGTCAAGGTCAGTGAAAGAGACTCGAA | 0.946
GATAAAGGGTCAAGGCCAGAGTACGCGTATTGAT | 0.966

Param item = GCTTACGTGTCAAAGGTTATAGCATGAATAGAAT ; retrieve measured PBM binding z-score. 0.407

Param item = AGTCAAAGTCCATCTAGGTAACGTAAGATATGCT ; retrieve measured PBM binding z-score. 1.24

###

Recorded PBM binding z-score, one value per entry.
- System: RARb:RXRa (NR concentration 270 nM, RXRa partner concentration 90 nM)
- assay notes: PBM binding z-score (relative to random genomic background probes); higher = stronger binding; sequences stand for … in GC…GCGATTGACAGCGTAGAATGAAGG
Number only, please.

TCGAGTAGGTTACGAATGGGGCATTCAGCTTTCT | 0.855
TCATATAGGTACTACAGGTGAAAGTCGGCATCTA | 0.472
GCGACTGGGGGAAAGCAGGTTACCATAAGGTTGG | 0.616
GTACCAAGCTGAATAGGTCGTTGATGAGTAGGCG | 0.0822
CAAACTAGGCCAAAGGTCAAAGTCGAGCCAACCA | 5.26

Value wanted: PBM binding z-score (RARb:RXRa (NR concentration 270 nM, RXRa partner concentration 90 nM)) of entry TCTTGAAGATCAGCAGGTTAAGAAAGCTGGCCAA 0.0583

###

- System: PPARg DBDmut IVT, anti-PPARg (DBD mutation: PPARg1 K132A/R137A, NR concentration 270 nM)
- assay notes: PBM binding z-score (relative to random genomic background probes); higher = stronger binding; sequences stand for … in GC…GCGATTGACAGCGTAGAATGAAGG
Dear colleague, classification is by PBM binding z-score, with ranges listed here: lower = under -0.2, middle = from -0.2 up to 0.6, upper = 0.6 and over

Example results:
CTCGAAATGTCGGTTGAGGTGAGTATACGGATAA | middle
CGACCTAGGTCATCCAGGACAGTGAATACATTGA | middle
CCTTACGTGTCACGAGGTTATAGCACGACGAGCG | middle
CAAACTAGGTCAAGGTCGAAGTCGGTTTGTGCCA | upper
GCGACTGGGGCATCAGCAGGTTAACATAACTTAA | lower
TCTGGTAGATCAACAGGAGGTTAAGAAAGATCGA | middle
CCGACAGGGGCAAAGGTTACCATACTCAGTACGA | lower
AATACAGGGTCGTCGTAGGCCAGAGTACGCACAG | middle

Switching to the query record.
# bin label for ATATGTAGGTTACATCCGGGTCATTCATGCTATG upper
